Tested on: OVCAR-5
experiment_description: NCI tumour cell line growth inhibition, 48 h
Activity calls are given as the source filed them. Cut-off read from the data, not from the text of the source: active = GI50 up to about 1.1 µM and inactive = higher.
Each entry below carries its reported GI50.

# molecule, GI50
measured = [
    ("O=C(CCc1ccccc1)On1nnc2ccccc2c1=O", "> 100 µM (inactive)"),
    ("O=C1/C(=C/c2ccc(Oc3ccccc3)cc2)N=C(c2ccccc2)N1c1ccc(S(=O)(=O)Nc2nccs2)cc1", "40.4 µM (inactive)"),
    ("CN(C)/N=C(/c1nc2ccc(Cl)cc2nc1O)C(O)c1ccc(C(O)/C(=N\\N(C)C)c2nc3ccc(Cl)cc3nc2O)cc1 (stereo unspecified)", "> 100 µM (inactive)"),
    ("C1CN2N3CCCC23C1 (stereo unspecified)", "> 100 µM (inactive)"),
    ("COc1ccc(OC)c(/C=C/NC=O)c1", "> 100 µM (inactive)"),
    ("NC(=O)CCC(CCC(N)=O)(CCC(N)=O)[N+](=O)[O-]", "> 100 µM (inactive)"),
]

----------
Test system: OVCAR-4
experiment_description: NCI tumour cell line growth inhibition, 48 h
Active and inactive are the calls of the source. Cut-off read from the data, not from the text of the source: active = GI50 up to about 1.1 µM and inactive = higher.
Each entry below carries its reported GI50.

# molecule, GI50
measured = [
    ("Oc1cc2c3c(c1)CCCN3CCC2", "> 10 µM (inactive)"),
    ("COC(=O)/C(=N/Nc1cccc(Cl)c1)C(C(=O)C(=O)Nc1cccc(Cl)c1C)c1nc2ccccc2nc1C (stereo not drawn)", "68.5 µM (inactive)"),
    ("CCC1=C(C(C)=O)[C@@H]2CCCCC(C(=O)OC)[C@@H]2C1=O (stereo partly drawn)", "> 100 µM (inactive)"),
]

----------
Test system: ACHN
experiment_description: NCI tumour cell line growth inhibition, 48 h
Activity calls are given as the source filed them. Cut-off read from the data, not from the text of the source: active = GI50 up to about 1.1 µM and inactive = higher.
Outcome codes: 1.0 for active, 0.0 for inactive

# compound, label_class
rows = [
    ("CS(=O)(=O)OCC1CN(S(C)(=O)=O)c2cc(O)ccc21 (centres undefined)", 0.0),
    ("CCOC(=O)c1csc(NC(=O)CCN2CCCCC2)n1", 0.0),
    ("CCOC(=O)C(NC(=O)NCc1ccc(F)cc1)C(F)(F)F (centres undefined)", 0.0),
    ("C[C@H](CCC1SC1(C)C)C1CCC2(C)C3=C(CC[C@]12C)[C@@]1(C)CC[C@H](O)C(C)(C)C1CC3 (some centres undefined)", 0.0),
    ("CCOC(=O)N1CCC(N[C@@H]2c3cc4c(cc3[C@@H](c3cc(OC)c(O)c(OC)c3)[C@H]3C(=O)OC[C@@H]32)OCO4)CC1", 1.0),
    ("C=C(C)C(=O)OC1C[C@H](COC(C)=O)C2CC=C(CO)C2C2OC(=O)C(=C)[C@H]12 (some centres undefined)", 0.0),
    ("O=S(=O)([N-]c1nc2ccccc2nc1-[n+]1ccccc1)c1ccccc1", 0.0),
    ("COc1ccc(CSc2nc3ccccc3nc2-c2cccs2)cc1", 0.0),
    ("CCOC(=O)c1ccc(C(=O)n2ccnc2)[nH]1", 0.0),
]

----------
System: 786-0
experiment_description: NCI tumour cell line growth inhibition, 48 h
Calls of active or inactive are those of the source. Cut-off read from the data, not from the text of the source: active = GI50 up to about 1.1 µM and inactive = higher.
Outcome codes: active, inactive

# molecule, assayed_target, label_class
data = [
    ("Fc1ccc(NC(=S)SCc2ccc3c(c2)OCO3)cc1F", "786-0", "inactive"),
    ("CN(C)CC1CCCC1=O (stereo not given)", "786-0", "inactive"),
    ("CCOC(=O)C(NC(=O)c1ccccc1)(Nc1ccc(Cl)cc1C(F)(F)F)C(F)(F)F (stereo not given)", "786-0", "inactive"),
    ("COC(=O)c1ccc(NC(=O)c2cc(OC)c(OC)c(OC)c2)cc1", "786-0", "active"),
    ("C=C[C@H]1CN2CCc3c([nH]c4c([C@@H]5CCCN5C)c(O)ccc34)[C@@H]2C[C@@H]1C[C@H]1c2[nH]c3ccccc3c2CCN1C", "786-0", "inactive"),
    ("COc1ccc(/C=N/NC(=O)CSc2nc(-c3ccccc3)c(-c3ccccc3)[nH]2)cc1OC", "786-0", "inactive"),
    ("O=C1N=NC(=O)N1c1cc(C(F)(F)F)cc(C(F)(F)F)c1", "786-0", "inactive"),
    ("C/C(=N\\O)c1ccc2cc(Br)c3ccccc3c2c1", "786-0", "inactive"),
    ("CCN(CC)CCCNc1c2c(Cl)cc(Cl)cc2nc2nc(O)nc(C)c12", "786-0", "inactive"),
    ("CCOC(=O)c1oc2c(OC)ccc3c2c1CCC3", "786-0", "inactive"),
    ("S=C(Cc1ccc2c(c1)Sc1ccccc1O2)N1CCOCC1", "786-0", "inactive"),
    ("CC1=NC(=O)C(C)(c2ccccc2)N1CCc1ccccc1 (stereo not given)", "786-0", "inactive"),
    ("COc1ccc(-c2c(C#N)c(O)n(C3OC(CO)C(O)C(O)C3O)c(=S)c2C#N)cc1 (stereo not given)", "786-0", "inactive"),
    ("O=C1[C@@H]2C[C@@H](O)CN2C(=O)c2ccccc2N1CCCO", "786-0", "inactive"),
    ("Nc1ccc(C23CC4CC(C2)CC(c2ccc(N)cc2)(C4)C3)cc1", "786-0", "inactive"),
    ("O=C(CC1=Nc2nnc(-c3nnc4n3C(=O)C(CC(=O)C3CC3)=N4)n2C1=O)C1CC1", "786-0", "inactive"),
    ("O=C1N(C2CCCCC2)CC12CCCCC2", "786-0", "inactive"),
    ("O=c1[nH]nc(-c2ccc([N+](=O)[O-])cc2)n1/N=C/c1ccc([N+](=O)[O-])cc1", "786-0", "inactive"),
    ("CCOC(=O)N/N=C(/N)c1cccc(Br)c1", "786-0", "inactive"),
    ("NC(=O)c1ccccc1NC(=O)C(=O)C(c1cnc2ccc([N+](=O)[O-])cc2n1)[N+](=O)[O-] (stereo not given)", "786-0", "inactive"),
    ("CC1CC(=O)Nc2cc(Cl)ccc2N1C(=O)C1CC1 (stereo not given)", "786-0", "inactive"),
    ("C=C1CC(C)(COc2ccc3c(C)c(C)c(=O)oc3c2C)OC1=O (stereo not given)", "786-0", "inactive"),
    ("O=C(Nc1ccc2[nH]c(C(=O)N3CC(CCl)c4ccc([N+](=O)[O-])cc43)cc2c1)c1cc2ccccc2o1 (stereo not given)", "786-0", "inactive"),
    ("Cc1nc2n(c1/C=C1/C(=O)Nc3cccc(Cl)c31)CCS2", "786-0", "inactive"),
    ("N#Cc1cccnc1Cl", "786-0", "inactive"),
    ("CCCCc1c2cnccc2c(CCCC)c2c1[nH]c1ccccc12", "786-0", "inactive"),
    ("C/C=C(\\C)C(=O)OC1C(C)=C2C(C1OC(=O)CCCC)C(C)(OC(C)=O)CC(OC(=O)CCCC)C1(O)C2OC(=O)C1(C)O (stereo not given)", "786-0", "active"),
    ("Cc1ccc(NC(=O)/C(=N\\NC(N)=O)c2c(O)c3ccccc3[nH]c2=O)cc1", "786-0", "inactive"),
    ("COC(=O)C(C)Oc1ccc(O)cc1 (stereo not given)", "786-0", "inactive"),
    ("O=[N+]([O-])c1cccnc1NCC1(CO)CC(Cc2ccccc2)C1 (stereo not given)", "786-0", "inactive"),
    ("COc1ccc(C(OCC2OC(n3cc(C)c(=O)[nH]c3=O)CC2n2cc(Cn3cc(F)c(=O)[nH]c3=O)nn2)(c2ccccc2)c2ccccc2)cc1 (stereo not given)", "786-0", "inactive"),
    ("CCOC(=O)c1cccnc1C(OC(C)=O)OC(C)=O", "786-0", "inactive"),
    ("CCCCCCCCCCC(O)CCCCCCC(=O)O (stereo not given)", "786-0", "inactive"),
    ("COc1cc(CO)c(CC(=O)NCCCc2ccccc2)cc1OC", "786-0", "inactive"),
    ("CC1=NC(=Cc2cccc(Cl)c2)C(=O)N1n1c(-c2ccccc2)nc2ccccc2c1=O", "786-0", "inactive"),
]

----------
Each entry below carries its reported GI50.
Tested on: HOP-92
experiment_description: NCI tumour cell line growth inhibition, 48 h
The source made the active and inactive calls. Rule as the data show it: active = GI50 up to about 1.1 µM and inactive = higher.

# molecule, GI50
data = [
    ("O=c1c2ccccc2nc(-c2ccc(Br)cc2)n1NC1OC(CO)C(O)C(O)C1O (centres undefined)", "> 100 µM (inactive)"),
    ("CCOC(=O)/C(=C/c1ccc[nH]1)P(=O)(OCC)OCC", "94.2 µM (inactive)"),
    ("O=C1c2ccccc2C(=O)N1CC1(C(=O)O)NCCS1(=O)=O (centres undefined)", "> 100 µM (inactive)"),
    ("N#CC1(c2nc3ccccc3o2)C(=O)C(=O)N(C2C3CC4CC(C3)CC2C4)C(=O)C1=O (centres undefined)", "84.9 µM (inactive)"),
]
